Overview of recorded inhibition at 10 µM for various compounds
biological target: SIRT3 (Homo sapiens, UniProt Q9NTG7); test: Fluor de Lys SIRT3 assay; conditions: read-out: % inhibition at 10 μM SIRT3
Sequence (Q9NTG7 whole entry): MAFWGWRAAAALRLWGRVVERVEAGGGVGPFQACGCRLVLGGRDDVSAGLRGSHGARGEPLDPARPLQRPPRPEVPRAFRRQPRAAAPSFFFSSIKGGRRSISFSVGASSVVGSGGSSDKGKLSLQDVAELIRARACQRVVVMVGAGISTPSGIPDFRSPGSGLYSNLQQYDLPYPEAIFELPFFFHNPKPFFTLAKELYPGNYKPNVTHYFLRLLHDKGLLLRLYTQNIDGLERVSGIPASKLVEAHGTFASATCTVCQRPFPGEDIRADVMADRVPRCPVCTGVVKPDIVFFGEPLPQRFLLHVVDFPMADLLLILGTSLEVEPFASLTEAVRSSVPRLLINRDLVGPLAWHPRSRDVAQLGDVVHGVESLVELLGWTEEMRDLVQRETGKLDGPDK
Where a SMILES comes first, the peptide text is derived from it. Side-chain parts run from the residue outwards. The star is where a group is joined. Cbz = O=C(OCc1ccccc1)*; Bz = O=C(c1ccccc1)*
measurement-type: inhibition at 10 µM (%)

INSERT INTO assay_data (compound, value_unit, result_number) VALUES
  ('CCCCCNC(=S)CNC(=O)c1ccccc1Nc1cccc(OCCc2ccccc2)c1', '%', 0),
  ('C[C@H](NC(=O)[C@H](CCCCNC(=O)CNC(=O)c1ccccc1Nc1ccccc1)NC(=O)OCc1ccccc1)C(N)=O', '%', 9),
  ('C[C@H](NC(=O)[C@H](CCCCNC(=O)CNC(=O)c1ccccc1Nc1cccc(OCCc2ccccc2)c1)NC(=O)OCc1ccccc1)C(N)=O', '%', 14),
  ('O=C(Nc1cccc([N+](=O)[O-])c1)c1cccc(S(=O)(=O)N2CCCCCC2)c1 [Compound 8, AK-1, reference compound]', '%', 0),
  ('CC(=S)NCCCC[C@H](NC(=O)OCc1ccccc1)C(=O)N[C@@H](C)C(N)=O [UKU 10363, reference compound]', '%', 65),
  ('NC(=O)CNC(=O)c1ccccc1Nc1cccc(OCCc2ccccc2)c1', '%', 10),
  ('CN(C)CCCCC(=O)Nc1ccc(NC(=S)NC(=O)c2ccc(C(C)(C)C)cc2)cc1 [Compound 3, tenovin-6, reference compound]', '%', 0),
  ('CCCNC(=S)CNC(=O)c1ccccc1Nc1cccc(OCCc2ccccc2)c1', '%', 0),
  ('CCCNC(=O)CNC(=O)c1ccccc1Nc1cccc(OCCc2ccccc2)c1', '%', 0),
  ('CCCCCNC(=O)CNC(=O)c1ccccc1Nc1cccc(OCCc2ccccc2)c1', '%', 3),
  ('NC(=O)c1ccccc1Nc1cccc(OCCc2ccccc2)c1 [Compound 6, 3′-phenethyloxy-2-anilinobenzamide, reference compound]', '%', 1),
  ('C[C@H](NC(=O)[C@H](CCCCNC(=O)CNC(=O)c1ccccc1)NC(=O)OCc1ccccc1)C(N)=O [Compound 28] (Cbz-Lys([Gly-Bz])-Ala-NH2)', '%', 1),
  ('Cc1cc(C)nc(SCC(=O)Nc2ncc(Cc3cccc4ccccc34)s2)n1 [Compound 5, SirReal2, reference compound]', '%', 5);

---

molecular target: SIRT2 (Homo sapiens); assay: Fluor de Lys SIRT2 assay; conditions: read-out: % inhibition at 10 μM SIRT2
Sequence (Q8IXJ6 whole entry): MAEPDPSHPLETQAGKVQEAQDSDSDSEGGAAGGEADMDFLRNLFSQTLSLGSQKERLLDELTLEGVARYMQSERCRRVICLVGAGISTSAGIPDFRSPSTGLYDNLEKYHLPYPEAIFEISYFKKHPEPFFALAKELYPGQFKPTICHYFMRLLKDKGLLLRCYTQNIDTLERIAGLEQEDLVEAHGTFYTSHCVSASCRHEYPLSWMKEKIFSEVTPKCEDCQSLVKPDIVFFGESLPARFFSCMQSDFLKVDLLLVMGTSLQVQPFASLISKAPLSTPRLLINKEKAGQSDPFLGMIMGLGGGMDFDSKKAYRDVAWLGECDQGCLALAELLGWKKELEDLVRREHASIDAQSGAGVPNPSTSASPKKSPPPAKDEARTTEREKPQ
measurement-type: inhibition at 10 µM (%)

INSERT INTO results (molecule, result_number) VALUES
  ('CN(C)CCCCC(=O)Nc1ccc(NC(=S)NC(=O)c2ccc(C(C)(C)C)cc2)cc1 [Compound 3, tenovin-6, reference compound]', 45),
  ('C[C@H](NC(=O)[C@H](CCCCNC(=O)CNC(=O)c1ccccc1Nc1cccc(OCCc2ccccc2)c1)NC(=O)OCc1ccccc1)C(N)=O', 99),
  ('NC(=O)C1CCCc2c1[nH]c1ccc(Cl)cc21 (stereo not shown) [Compound 9, EX-527, reference compound]', 79),
  ('CCCNC(=S)CNC(=O)c1ccccc1Nc1cccc(OCCc2ccccc2)c1', 54),
  ('CC(=S)NCCCC[C@H](NC(=O)OCc1ccccc1)C(=O)N[C@@H](C)C(N)=O [UKU 10363, reference compound]', 99),
  ('NC(=O)CNC(=O)c1ccccc1Nc1cccc(OCCc2ccccc2)c1', 85),
  ('CCCNC(=O)CNC(=O)c1ccccc1Nc1cccc(OCCc2ccccc2)c1', 81);
